- Measured on: T1, Human AXL-Fc (R&D Systems, #154-AL) (human, UniProt P30530 26-451)
- T1 construct: Bought reagent; also called human AXL-Fc fusion protein; human AXL-Fc protein; not shown: Fc part of the bought fusion protein
- T1 sequence: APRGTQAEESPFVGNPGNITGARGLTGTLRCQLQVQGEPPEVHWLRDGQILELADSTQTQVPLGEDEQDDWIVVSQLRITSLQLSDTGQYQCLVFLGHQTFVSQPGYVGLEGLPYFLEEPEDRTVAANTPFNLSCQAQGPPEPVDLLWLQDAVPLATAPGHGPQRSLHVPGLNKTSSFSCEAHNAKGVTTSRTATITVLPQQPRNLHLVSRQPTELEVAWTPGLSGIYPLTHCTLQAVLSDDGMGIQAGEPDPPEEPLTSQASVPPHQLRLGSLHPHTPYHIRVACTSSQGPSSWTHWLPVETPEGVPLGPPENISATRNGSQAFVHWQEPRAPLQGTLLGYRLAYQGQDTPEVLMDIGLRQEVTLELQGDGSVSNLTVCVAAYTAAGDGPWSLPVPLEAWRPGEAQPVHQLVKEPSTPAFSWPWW
- Assay procedure: ELISA on plate-adsorbed human AXL-Fc (1 ug/ml), 5-fold antibody dilution series, AP-conjugated goat anti-human IgG, fluorescent substrate (Example 13)
Result type: EC50 (read off the curve)

* h#11B7-T11 (antibody, human IgG1, kappa, V domains shown, Humanized IgG1/kappa) VH: QVQLQESGPGLVKPSETLSLTCTVSGYSITSNYWGWIRQPPGKGLEWIGYITYSGSTSYNPSLKSRVSISRDTSKNQFSLKLSSVTAADTAVYYCAITTFYYWGQGTLVTVSS VL: DIQMTQSPSSLSASVGDRVTITCRASQDIGNYLRWFQQKPGKAPKLLISGATNLAAGVPSRFSGSGSGSDFTLTISSLQPEDFATYYCLQSKESPWTFGQGTKVEIKR | ~0.02 µg/mL
